ASSAYED SYSTEM: human LTA4 hydrolase (Homo sapiens, UniProt P09960)
Sequence (P09960 1-611): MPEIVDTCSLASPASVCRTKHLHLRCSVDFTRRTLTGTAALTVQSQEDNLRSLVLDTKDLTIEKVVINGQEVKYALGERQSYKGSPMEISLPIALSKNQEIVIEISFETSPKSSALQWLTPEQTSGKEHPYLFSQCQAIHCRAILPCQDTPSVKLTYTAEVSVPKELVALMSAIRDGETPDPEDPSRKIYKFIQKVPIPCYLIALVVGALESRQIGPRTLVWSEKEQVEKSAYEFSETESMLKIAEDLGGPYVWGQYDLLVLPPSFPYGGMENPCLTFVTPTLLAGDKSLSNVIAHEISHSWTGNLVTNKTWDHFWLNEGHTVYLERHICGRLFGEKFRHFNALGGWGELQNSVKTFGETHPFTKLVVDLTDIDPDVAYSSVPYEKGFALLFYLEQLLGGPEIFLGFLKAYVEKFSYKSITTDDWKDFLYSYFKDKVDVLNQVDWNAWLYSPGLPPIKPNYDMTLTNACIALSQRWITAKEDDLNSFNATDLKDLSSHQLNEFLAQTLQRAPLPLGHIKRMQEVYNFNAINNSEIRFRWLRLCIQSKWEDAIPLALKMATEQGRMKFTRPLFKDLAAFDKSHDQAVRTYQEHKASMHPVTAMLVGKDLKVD
ASSAY DETAILS: LTA4H Enzyme assay (cleavage of Arg-AMC, fluorescence)
Format: biochemical
EXPERIMENTAL CONDITIONS: LTA4H Enzyme 1 nM, Arg-AMC substrate 50 μM, room temperature 1 h, fluorescence; read-out: IC50 values of LTA4H Enzyme assay
Experimental: The compounds of the invention are assessed for the ability to interact with human LTA4 hydrolase in an enzymatic assay that measures the ability of the enzyme to cleave the peptide bond of arginyl-aminomethylcoumarin (Arg-AMC). […] The formation of product is assessed by measuring the fluorescence of aminomethylcoumarin product (excitation wavelength 380 nm/emission wavelength 460 nm).
pIC50: −log10 of the molar value.
Assign Y whenever pIC50 does not fall below 9; assign N whenever it does.

Worked examples, 3 compounds total:
{"columns": ["COMPOUND", "ASSAYED SYSTEM", "LABEL VALUE"],
 "data": [
  ["CCN(CC)Cc1ccc([C@H]2COc3cccnc3O2)cc1 [Example 141]", "human LTA4 hydrolase (Homo sapiens, UniProt P09960)", "Y"],
  ["O[C@H]1CC[C@H](NCc2ccc([C@H]3COc4ccccc4O3)cc2)CC1 [Example 76]", "human LTA4 hydrolase (Homo sapiens, UniProt P09960)", "N"],
  ["CS(=O)(=O)NC1CCN(Cc2ccc(C3COc4ccccc4O3)cc2)CC1 (racemic) [Example 48]", "human LTA4 hydrolase (Homo sapiens, UniProt P09960)", "Y"]
]}

Decide: pIC50 of O=C(CN1CCCC1=O)NC1CCN(Cc2ccc([C@H]3COc4cccnc4O3)cc2)CC1 [Example 289] >= 9? Y

Please indicate if the recorded pIC50 for NC(=O)c1cn2c(n1)CN(Cc1ccc([C@H]3COc4cccnc4O3)cc1)CC2 [Example 243] meets or exceeds 9. Y

Quick check, pIC50 >= 9? O[C@H]1CCN(Cc2ccc([C@H]3COc4cccnc4O3)cc2)C1 [Example 147] Y
